Assign Ki to each entry below.
- PROTOCOL: Inhibition of pig kidney cytosolic leucine aminopeptidase
- Design: species or system Sus scrofa
Record the value in µM, omitting the unit from your answer.

Request: Reported Ki for NC(CCc1ccccc1)P(=O)(O)CC(NCc1ccccc1)C(=O)O (stereo in doubt; 6) : what is it?
Response: 12.4

Request: Reported Ki for NCc1ccc(CNC(CP(=O)(O)C(N)CCc2ccccc2)C(=O)O)cc1 (stereo in doubt; 8,F2) : what is it?
Response: 2.62

Request: Reported Ki for NC(CCc1ccccc1)P(=O)(O)CC(NCc1ccccc1)C(=O)O (stereo in doubt; 6,F1) : what is it?
Response: 10.1

Request: Reported Ki for NCc1ccc(NC(CP(=O)(O)C(N)CCc2ccccc2)C(=O)O)cc1 (stereo not given) : what is it?
Response: 4.46

Request: Reported Ki for NCc1ccc(CNC(CP(=O)(O)C(N)CCc2ccccc2)C(=O)O)cc1 (stereo in doubt; 8,F1) : what is it?
Response: 2.78
